Attribute: Remaining Percentages (%) 120 min
protocol-notes: Plasma stability in mouse plasma
Type: in vitro ADME
condition: 1 μM, 120 min

Answered examples (5):
compound="CCOC(=S)N(C)C(C)Cc1ccc2c(c1)OCO2 (stereo not drawn) [Prodrug 3]" attribute_measured="Remaining Percentages (%) 120 min" assay_result=96.85%
compound="CSC(=S)N(C)C(C)Cc1ccc2c(c1)OCO2 (stereo not drawn) [Prodrug 9]" attribute_measured="Remaining Percentages (%) 120 min" assay_result=97.14%
compound="CCSC(=O)NC(C)Cc1ccc2c(c1)OCO2 (stereo not drawn) [Prodrug 8]" attribute_measured="Remaining Percentages (%) 120 min" assay_result=101.19%
compound="CCSC(=S)NC(C)Cc1ccc2c(c1)OCO2 (stereo not drawn) [Prodrug 12]" attribute_measured="Remaining Percentages (%) 120 min" assay_result=89.25%
compound="CSC(=O)N(C)C(C)Cc1ccc2c(c1)OCO2 (stereo not drawn) [Prodrug 5]" attribute_measured="Remaining Percentages (%) 120 min" assay_result=94.52%

Turning now to a further record.
Please fill in: Remaining Percentages (%) 120 min reported for COC(=S)NC(C)Cc1ccc2c(c1)OCO2 (stereo not drawn) [Prodrug 2] = 91.94%

---

protocol-notes: Chemical stability in PBS pH 6.5
Format: physicochemical
condition: PBS pH 6.5
attribute-measured: half-life

compound="CSC(=O)NC(C)Cc1ccc2c(c1)OCO2 (stereo not shown) [Prodrug 6]" assay_result="> 1020 min"
compound="CCSC(=S)NC(C)Cc1ccc2c(c1)OCO2 (stereo not shown) [Prodrug 12]" assay_result="> 1020 min"

Please fill in: half-life reported for COC(=S)N(C)C(C)Cc1ccc2c(c1)OCO2 (stereo not shown) [Prodrug 1] = > 1020 min

Please fill in: half-life reported for CSC(=S)N(C)C(C)Cc1ccc2c(c1)OCO2 (stereo not shown) [Prodrug 9] = > 1020 min

Please fill in: half-life reported for COC(=S)NC(C)Cc1ccc2c(c1)OCO2 (stereo not shown) [Prodrug 2] = > 1020 min

Please fill in: half-life reported for CCSC(=O)NC(C)Cc1ccc2c(c1)OCO2 (stereo not shown) [Prodrug 8] = > 1020 min

Please fill in: half-life reported for CCOC(=S)NC(C)Cc1ccc2c(c1)OCO2 (stereo not shown) [Prodrug 4] = > 1020 min

Please fill in: half-life reported for CCSC(=O)N(C)C(C)Cc1ccc2c(c1)OCO2 (stereo not shown) [Prodrug 7] = > 1020 min

Please fill in: half-life reported for CCOC(=S)N(C)C(C)Cc1ccc2c(c1)OCO2 (stereo not shown) [Prodrug 3] = > 1020 min

Please fill in: half-life reported for CSC(=S)NC(C)Cc1ccc2c(c1)OCO2 (stereo not shown) [Prodrug 10] = > 1020 min

Please fill in: half-life reported for O=C(O)Cc1ccccc1Nc1c(Cl)cccc1Cl [Diclofenac, reference compound] = 41.7 min

Please fill in: half-life reported for CSC(=O)N(C)C(C)Cc1ccc2c(c1)OCO2 (stereo not shown) [Prodrug 5] = > 1020 min

Please fill in: half-life reported for CCSC(=S)N(C)C(C)Cc1ccc2c(c1)OCO2 (stereo not shown) [Prodrug 11] = > 1020 min

---

Attribute: Remaining Percentages (%) 60 min
protocol-notes: Plasma stability in mouse plasma
Type: in vitro ADME
condition: 1 μM, 60 min
Express the result in % but write the number alone.

Answered examples (8):
molecule="CCOC(=S)N(C)C(C)Cc1ccc2c(c1)OCO2 (stereo not drawn) [Prodrug 3]" assay_result=97.75
molecule="CSC(=O)N(C)C(C)Cc1ccc2c(c1)OCO2 (stereo not drawn) [Prodrug 5]" assay_result=100.78
molecule="CCSC(=S)N(C)C(C)Cc1ccc2c(c1)OCO2 (stereo not drawn) [Prodrug 11]" assay_result=94.58
molecule="CCSC(=S)NC(C)Cc1ccc2c(c1)OCO2 (stereo not drawn) [Prodrug 12]" assay_result=92.28
molecule="CCSC(=O)N(C)C(C)Cc1ccc2c(c1)OCO2 (stereo not drawn) [Prodrug 7]" assay_result=113.27
molecule="CSC(=S)N(C)C(C)Cc1ccc2c(c1)OCO2 (stereo not drawn) [Prodrug 9]" assay_result=98.79
molecule="CSC(=O)NC(C)Cc1ccc2c(c1)OCO2 (stereo not drawn) [Prodrug 6]" assay_result=102.16
molecule="CSC(=S)NC(C)Cc1ccc2c(c1)OCO2 (stereo not drawn) [Prodrug 10]" assay_result=100.22

Please fill in: Remaining Percentages (%) 60 min reported for COC(=S)NC(C)Cc1ccc2c(c1)OCO2 (stereo not drawn) [Prodrug 2] = 96.35

Please fill in: Remaining Percentages (%) 60 min reported for CCOC(=S)NC(C)Cc1ccc2c(c1)OCO2 (stereo not drawn) [Prodrug 4] = 97.80

Please fill in: Remaining Percentages (%) 60 min reported for COC(=S)N(C)C(C)Cc1ccc2c(c1)OCO2 (stereo not drawn) [Prodrug 1] = 103.37

Please fill in: Remaining Percentages (%) 60 min reported for CCSC(=O)NC(C)Cc1ccc2c(c1)OCO2 (stereo not drawn) [Prodrug 8] = 105.81
